test system: HSkMC; assay: cytotoxicity call (relative viability < 0.9); settings: 10 µM
Screen size: about 39,000 compounds; about 1,500 (3.8%) were called active. This excerpt belongs to a sample that is enriched for actives.
Give one outcome, nothing more. List: TRUE for active, FALSE for inactive

Examples from the recorded data:
State the result this test recorded for Cc1ccc(C(=O)N(CCCN)[C@@H](c2oc3cc(Cl)ccc3c(=O)c2Cc2ccccc2)C(C)C)cc1 .
TRUE

State the result this test recorded for COc1ccc(NC(=O)N(C)C[C@@H]2Oc3ncc(C#CCN(C)C)cc3C(=O)N([C@H](C)CO)C[C@@H]2C)cc1 .
FALSE

State the result this test recorded for C[C@@H]1CN([C@@H](C)CO)C(=O)Cc2cc(NC(=O)Nc3ccc4c(c3)OCO4)ccc2O[C@@H]1CN(C)Cc1ccc(Cl)c(Cl)c1 .
FALSE

Further cases:
State the result this test recorded for Cc1cc(C(=O)c2cc3cc(Cl)ccc3o2)ccc1Cl .
FALSE

State the result this test recorded for C[C@@H]1CCCCO[C@H](CN(C)C(=O)c2ccccc2)[C@H](C)CN([C@H](C)CO)C(=O)c2cc(NC(=O)C3CCCCC3)ccc2O1 .
FALSE

State the result this test recorded for Cc1noc(C)c1NC(=O)Nc1ccc2c(c1)C(=O)N([C@@H](C)CO)C[C@@H](C)[C@@H](CN(C)C(=O)NC(C)C)O2 .
FALSE

State the result this test recorded for COc1ccc([C@H]2CC=CC[C@H](C)Oc3ccccc3C(=O)N(C)[C@H](Cc3ccccc3)C(=O)N2)c(OC)c1 .
FALSE

State the result this test recorded for C[C@H](CO)N1C[C@H](C)[C@@H](CN(C)S(=O)(=O)c2ccc(F)cc2)Oc2ccc(NC(=O)C3CC3)cc2CC1=O .
FALSE

State the result this test recorded for Cc1cc(CN)cc(C)c1NC(=O)c1ccc(-c2cc(Cl)ccc2Cl)o1 .
TRUE

State the result this test recorded for Cc1ccc2sc(N(CCCN(C)C)C(=O)c3ccc(S(=O)(=O)N(C)Cc4ccccc4)cc3)nc2c1C .
TRUE

State the result this test recorded for C[C@@H]1CCCCO[C@@H](CN(C)Cc2ccc(C(=O)O)cc2)[C@@H](C)CN([C@@H](C)CO)C(=O)c2cc(NS(=O)(=O)c3cccs3)ccc2O1 .
FALSE

====

test system: HSkMC (human skeletal muscle cells); assay: cytotoxicity call (relative viability < 0.9); details: 10 µM
Among all 39,000 compounds or so, about 1,500 (3.8%) were called active. Shown is part of a subset that was picked to be rich in actives.
Give one outcome, nothing more. List: active, inactive

State the result this test recorded for COc1ccc2c3c([nH]c2c1)[C@H](CO)N(C[C@]13CCN(CC1)CC1CCCCC1)C(=O)Nc1cccc(c1)F .
active

State the result this test recorded for COC1=C2C[C@@H](C)C[C@H](OC)[C@H](O)[C@@H](C)/C=C(\C)[C@H](OC(N)=O)[C@@H](OC)/C=C\C=C(/C)C(=O)NC(=CC1=O)C2=O .
inactive

State the result this test recorded for COc1ccc2c3c([nH]c2c1)[C@@H](CO)N(C[C@]13CCN(CC1)CC1CCCCC1)C(=O)Nc1cccc(c1)F .
active

State the result this test recorded for CO[C@H]1/C=C\C=C(/C)C(=O)NC2=CC(=O)C(NCCN(C)C)=C(C[C@@H](C)C[C@H](OC)[C@H](O)[C@@H](C)/C=C(\C)[C@@H]1OC(N)=O)C2=O .
active

State the result this test recorded for COc1ccc2c3c([nH]c2c1)[C@H](CO)N(CC1CCCCC1)C[C@]13CCN(CC1)C(=O)NC1CCCC1 .
active

State the result this test recorded for COc1ccc2c3c([nH]c2c1)[C@@H](CO)N(C[C@]13CCN(CC1)CC1CCCC1)C(=O)Nc1cccc(c1)F .
inactive

Alright, here's another compound for you.
State the result this test recorded for CO[C@H]1/C=C\C=C(/C)C(=O)NC2=CC(=O)C=C(C2=O)[C@H](OC)[C@@H](C)C[C@H](OC)[C@H](O)[C@@H](C)/C=C(\C)[C@@H]1OC(N)=O .
inactive
